Data origin, for the record: patent US20170174769A1

target: T1, full-length human FGFR1c on HEK293/hFGFR1c/SRE-luc cells (human, UniProt P11362 22-822); assay: FACS on stable HEK293 cells
T1 construct: amino acids 1-733 of NP_075593
T1 sequence (P11362 other isoform, or with tags, fused parts or gaps limits assumed): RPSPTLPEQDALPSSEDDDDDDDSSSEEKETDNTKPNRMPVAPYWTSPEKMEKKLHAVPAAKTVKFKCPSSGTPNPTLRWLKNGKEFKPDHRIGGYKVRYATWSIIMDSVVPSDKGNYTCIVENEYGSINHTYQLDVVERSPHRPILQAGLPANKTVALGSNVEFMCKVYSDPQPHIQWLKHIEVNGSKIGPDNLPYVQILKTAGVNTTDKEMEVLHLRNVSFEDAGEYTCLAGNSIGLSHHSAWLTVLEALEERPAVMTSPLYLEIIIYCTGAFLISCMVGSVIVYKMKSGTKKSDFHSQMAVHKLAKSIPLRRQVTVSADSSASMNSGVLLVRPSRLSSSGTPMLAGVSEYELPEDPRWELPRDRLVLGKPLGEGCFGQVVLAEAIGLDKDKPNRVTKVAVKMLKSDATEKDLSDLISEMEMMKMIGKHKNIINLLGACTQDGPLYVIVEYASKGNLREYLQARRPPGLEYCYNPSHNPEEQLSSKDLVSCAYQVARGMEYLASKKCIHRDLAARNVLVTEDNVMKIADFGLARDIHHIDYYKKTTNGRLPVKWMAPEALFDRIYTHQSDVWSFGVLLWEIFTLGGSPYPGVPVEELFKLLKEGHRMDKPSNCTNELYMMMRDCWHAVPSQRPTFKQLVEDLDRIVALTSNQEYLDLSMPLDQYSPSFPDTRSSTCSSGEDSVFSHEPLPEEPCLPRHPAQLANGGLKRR
measure name: binding ratio to unstained cells (fold)
Give your result in fold as a bare value.

H1H8900P (antibody, V domains shown, H1H Fc prefix (human Fc)) VH: QVQLVESGGGVVQPGRSLRLSCVASGFTFSSYGMHWVRQAPGKGLEWVAVISFDGSNKYYADSVKGRFTISRDNSKNTLYLQMNSLRPADTAVYYCAKDRSNYYYFGMDVWGQGTTVTVSS VL: DIVMTQTPLSLPVTPGEPASISCRSSQSLLDSDDGNTYLDWYLQKPGQSPQLLIYTLSYRASGVPDRFSGSGSGTDFTLKISRVEAEDVGVYYCMQRIEFPLTFGGGTKVEIK    5

Problem: Answer with the recorded binding ratio to unstained cells for the binder listed here: H4H8856P (antibody, V domains shown, human IgG4 Fc (H4H prefix)) VH: QVQLQESGPGLVKPSETLSLTCTVSGGSISSYYWSWIRQPPGKGLEWIAYIYYSGITKYNPSLKSRVTISADTSKNQFSLKLSSVTAADTAVYYCARHGIFGVMEYFQRWGQGTLVTVSS VL: DIQMTQSPSSLSASIGDRVTITCQASQDISNFLNWYQQKPGKAPTLLIYDVSNMETGVPSRFSGSGYGTDFTLTISSLKPEDIATYYCQQYDNIPLTFGGGTKVEIK
Solution: 1

Problem: Answer with the recorded binding ratio to unstained cells for the binder listed here: H2aM8098N (antibody, V domains shown, mouse IgG2 Fc (H2aM prefix)) VH: QLQLQESGPGLVKPSETLSLTCTVSGGSISSSNYYWDWIRQTPEKGLEWIGSIHYSGTSYYNPSLKSRVTISVDTSKNQFSLKLRSVTAADAAVYYCARQTSVYWYFDIWGHGTLVTVST VL: EIVLTQSPGTLSLSPGEGATLSCRASQSVRNNYLAWYQQKPGQAPRLLIYGASSRAIGIPDRFSGSGSGTDFTLTISRLEPKDFVVYYCQQYGGSLFTFGPGTKVDIK
Solution: 1
